Where do these numbers come from? They come from PubChem BioAssay (NCI).

- System: NCI-H23 lung
- Assay summary: NCI tumour cell line growth inhibition, 48 h
Kindly return Y if reported TGI is no lower than 7 µM; return N if it is lower.

Use these answered entries as a reference point.
>>> class_assignment("COc1ccc(NC(=O)C(=O)/C=C(\\O)c2ccccc2)cc1")
"Y"
>>> class_assignment("C[N+](C)(C)c1ncnc2c1ncn2C1CCCO1 (stereo not given)")
"Y"
>>> class_assignment("O=C(Nc1ccccc1OC(=O)c1ccccc1)c1ccccc1")
"Y"
>>> class_assignment("c1ccc(N=C2c3ccsc3C(=Nc3ccccc3)c3ccsc32)cc1")
"N"
>>> class_assignment("Cc1cc2c(cc1C)[n+](=O)c(C(=O)c1ccccc1)c(C(F)(F)F)n2[O-]")
"N"
>>> class_assignment("CC(=O)OCC1OC(OCCCOP(=S)(OCCC#N)OCC2OC(n3ccc(N)nc3=O)C(OC(=O)c3ccccc3)C2OC(=O)c2ccccc2)C(OC(C)=O)C(OC(C)=O)C1OC(C)=O (stereo not given)")
"Y"
>>> class_assignment("CN=C(Nc1cccc(C(F)(F)F)c1)SCc1ccc(N=C=S)cc1")
"Y"
>>> class_assignment("CCN(CC)C1Oc2cc3c(cc2C(c2cccc(OC)c2OC)C1C)OCO3 (stereo not given)")
"Y"
>>> class_assignment("COC(=O)C1CCC(=O)N1C(c1ccc2c(c1)OCO2)c1cc(OC)c(OC)c(OC)c1 (stereo not given)")
"Y"
>>> class_assignment("CO/N=C1/c2sccc2[C@H](NC(=O)C(Cc2ccccc2)NC(=O)OC(C)(C)C)[C@@H]1O (stereo not given in full)")
"Y"

Could you tell me if the measured TGI of CC1c2ccccc2CCN1c1ccc(CO)c(Cl)c1 (stereo not given) reaches 7 µM or more?
Y

Could you tell me if the measured TGI of COc1cc(C2(C)SCCCS2)cc(OC)c1OC reaches 7 µM or more?
Y

Could you tell me if the measured TGI of Oc1c(-c2cc(C(F)(F)F)[nH]n2)cc(Cl)c(OCc2ccc(Cl)cc2)c1-c1ccc(Cl)c(C(F)(F)F)c1 reaches 7 µM or more?
N

Could you tell me if the measured TGI of CSc1ccc(C2=NN(C(C)=O)C(c3ccc(-c4ccc(Cl)cc4)o3)C2)cc1 (stereo not given) reaches 7 µM or more?
Y
